System: SF-295 CNS
protocol-summary: NCI tumour cell line growth inhibition, 48 h
Parameter: TGI. Scope: all listed entries.

molecule	target-or-test-system	u	op	TGI
C/C(=N\NS(=O)(=O)c1ccccc1)c1ccccc1	SF-295 CNS	µM	>	100
[Se]=P(c1ccccc1)(c1ccccc1)c1ccc(C(c2ccccc2)=P(c2ccccc2)(c2ccccc2)c2ccccc2)cc1	SF-295 CNS	µM	=	10.2
O=c1c(SSc2coc3cc(F)ccc3c2=O)coc2cc(F)ccc12	SF-295 CNS	µM	>	100
Cc1c(C(=O)c2ccccc2C(=O)O)c2ccccc2n1C	SF-295 CNS	µM	>	100
Cc1cc(CNC(=O)OCc2ccccc2)c(C)c2c1Oc1ccccc1O2	SF-295 CNS	µM	>	100
Cn1ccn2c3nc4ccccc4nc3c(=O)c(C#N)c12	SF-295 CNS	µM	>	100
COCCOC(=O)NC(=O)Nc1ccc(/C(=N/O)c2ccc(Cl)cc2)cc1	SF-295 CNS	µM	=	0.559
Cc1c(C(=O)N2CCN(c3ccc([N+](=O)[O-])cc3)CC2)[n+](=O)c2cc(Cl)c(Cl)cc2n1[O-]	SF-295 CNS	µM	=	34.2
O=C(Nc1cccc(C(F)(F)F)c1)O/N=C(/Cl)CCl	SF-295 CNS	µM	>	100
COC1=C(N=[N+]=[N-])C(=O)c2ncccc2C1=O	SF-295 CNS	µM	=	29
C1CCN(c2nsc(N3CCCCC3)n2)CC1	SF-295 CNS	µM	>	100
CCOC(=O)c1cc(C(=O)c2ccccc2)n2nc(-c3ccc(Cl)cc3)ccc12	SF-295 CNS	µM	=	54.2
COc1ccc(C(N)=O)cc1N=NN(C)C	SF-295 CNS	µM	>	100
NC(=O)N/N=C/C(/C=N/NC(N)=O)[N+](=O)[O-]	SF-295 CNS	µM	>	100
COc1cc(/C=C2\CC3C4CC=C5C[C@@H](OC(C)=O)CC[C@]5(C)C4CC[C@]3(C)C2=O)ccc1OCCCn1ccnc1 (stereo not given in full)	SF-295 CNS	µM	=	22.3
Cc1cc(-c2[nH]c(C(=O)O)cc2I)on1	SF-295 CNS	µM	>	100
O=C1Sc2ccc(Br)cc2C(=O)Sc2ccccc21	SF-295 CNS	µM	=	57.5
CC(=O)O[C@H]1CC[C@@]2(C)C(=CC[C@H]3[C@@H]4C/C(=C\c5cccc(OCCN6CCOCC6)c5)[C@H](OC(C)=O)[C@@]4(C)CC[C@@H]32)C1	SF-295 CNS	µM	=	10.5
COc1ccccc1NC(=O)n1nc(N)c2ccccc21	SF-295 CNS	µM	>	100
CCCCCCCC(=O)OC(CBr)COC(=O)C(C)(C)C (stereo not given)	SF-295 CNS	µM	>	100
C=CC1ON(Cc2ccccc2)CCc2cc(OC)c(OC)cc21 (stereo not given)	SF-295 CNS	µM	>	100
Nc1nc2c(c(=O)[nH]1)N(C=O)C(CNc1ccc(C(=O)N[C@@H](CCC(=O)O)C(=O)O)cc1)CN2 (stereo not given in full)	SF-295 CNS	µM	>	125
COCC(=O)CP(=O)(OC)OC	SF-295 CNS	µM	>	100
C(=N\OCc1ccccc1)/c1ncccc1C1OCCO1	SF-295 CNS	µM	>	100
C[C@]1(CO)[C@H]2CC[C@@]34C=C[C@@](CO)(CC[C@H]3[C@]2(C)CC[C@H]1O)C4	SF-295 CNS	µM	>	100
O=C(Nc1ccc(Cl)cc1)c1ccc(NC2=C(Cl)C(=O)N(Cc3ccccc3)C2=O)cc1	SF-295 CNS	µM	=	19.9
COc1c(C(=O)O)oc2c(OC)cccc12	SF-295 CNS	µM	>	100
CN(C)C(N)=NC#N	SF-295 CNS	µM	>	100
Clc1ccc2[nH]cc(-c3nc(-c4c[nH]c5ncccc45)cs3)c2c1	SF-295 CNS	µM	=	7.66
O=C1CC(=O)c2c(O)cc(O)c(c2O)-c2c(ccc(O)c2O)C2=CC(=O)c3c(O)cc(O)c(c3O2)-c2c1ccc(O)c2O (tested in a mixture with another compound)	SF-295 CNS	µM	>	50
NC(=O)c1cc(Br)cc(C2CCCCC2)c1O	SF-295 CNS	µM	=	24.5
NC1CCN(c2nc(Nc3cccc(C(F)(F)F)c3)c3c(=O)[nH]ccc3n2)CC1	SF-295 CNS	µM	=	3.59
CN1C(=S)C(c2ccccc2)Sc2ccccc21 (stereo not given)	SF-295 CNS	µM	=	89.4
C=C1C(=O)O[C@H]2[C@H]1CC/C(COC(=O)NCc1ccc(Cn3c(=O)sn(CCCCl)c3=O)cc1)=C\CC[C@@]1(C)O[C@@H]21	SF-295 CNS	µM	=	31.7
Cc1cc(O)c2c(c1O)C(=O)C13C(=C2O)C(=O)C2C(O)C1C1C(O)C3C(=O)C3=C(O)c4c(O)cc(C)c(O)c4C(=O)C321 (stereo not given)	SF-295 CNS	µM	=	0.311
